test.system: human CCR5 receptor (hCCR5) (human), P51681
Sequence (P51681 whole entry): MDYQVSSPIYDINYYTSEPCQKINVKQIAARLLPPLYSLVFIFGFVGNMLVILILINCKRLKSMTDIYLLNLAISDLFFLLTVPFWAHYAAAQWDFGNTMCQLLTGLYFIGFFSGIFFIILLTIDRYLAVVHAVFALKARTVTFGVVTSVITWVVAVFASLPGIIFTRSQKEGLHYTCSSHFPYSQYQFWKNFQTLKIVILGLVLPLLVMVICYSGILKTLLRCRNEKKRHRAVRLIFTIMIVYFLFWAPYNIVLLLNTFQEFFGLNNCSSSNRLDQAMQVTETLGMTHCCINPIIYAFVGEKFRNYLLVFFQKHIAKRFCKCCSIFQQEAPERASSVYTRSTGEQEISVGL
procedure.details: inhibition of gp120/sCD4 complex binding to CCR5-expressing Cf2Th cells by competing peptide
result.type: pEC50
Value format note: pEC50 is -log10 of concentration (mol/L); just state the number.

Solved cases below.
TISYR (modifications not checked) ... 9.40
TTSYR (modifications not checked) ... 10.00
NSNYS (modifications not checked) ... 9.30

binder SSTYR (modifications not checked) , pEC50 observed: 10.00

FYI, the data here is from patent US20190000964A1.
